Each record here notes measured z-score.
Assay Overview: modulators of HCV replicon luciferase signal, primary screen, HCV replication inhibitor project, Huh7 cells, luciferase reporter (AID 1109);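 also: huh7 hepatoma cells harbouring a luciferase neomycin HCV replicon reporter; luciferase luminescence as measure of HCV replicon replication; test concentration not given here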
Experimental Parameters: 48 h, higher = more signal
Write the number on its own, no unit after it.

State the recorded z-score for this entry: CCOC(=O)C[C@H]1[C@H](OC(=O)Cc2ccc3c(c2)OCO3)[C@@H](NC(=O)Cc2ccc(OC)cc2)c2cc(OCCCO)ccc2N1C(=O)c1ccc2ccccc2n1
-0.763

State the recorded z-score for this entry: O=C1NC(=O)C2C1C=CC(C(O)CCc1ccccc1)N2Nc1ccc(Cl)cc1Cl (centres undefined)
-0.271

State the recorded z-score for this entry: N#Cc1ccc(C(O)C2C=CC3C(=O)N(c4ccccc4)C(=O)C3N2Nc2ccccc2)cc1 (centres undefined)
-0.875

State the recorded z-score for this entry: CCOC(=O)C1=C[C@@H](c2ccccc2)N(S(=O)(=O)c2ccc(C)cc2)[C@H]1c1ccccc1Cl
-1.55

----------
Study System: Pro-neuregulin-1, membrane-bound isoform (Homo sapiens) (UniProt Q02297)
Sequence (Q02297 whole entry, looked up, canonical isoform): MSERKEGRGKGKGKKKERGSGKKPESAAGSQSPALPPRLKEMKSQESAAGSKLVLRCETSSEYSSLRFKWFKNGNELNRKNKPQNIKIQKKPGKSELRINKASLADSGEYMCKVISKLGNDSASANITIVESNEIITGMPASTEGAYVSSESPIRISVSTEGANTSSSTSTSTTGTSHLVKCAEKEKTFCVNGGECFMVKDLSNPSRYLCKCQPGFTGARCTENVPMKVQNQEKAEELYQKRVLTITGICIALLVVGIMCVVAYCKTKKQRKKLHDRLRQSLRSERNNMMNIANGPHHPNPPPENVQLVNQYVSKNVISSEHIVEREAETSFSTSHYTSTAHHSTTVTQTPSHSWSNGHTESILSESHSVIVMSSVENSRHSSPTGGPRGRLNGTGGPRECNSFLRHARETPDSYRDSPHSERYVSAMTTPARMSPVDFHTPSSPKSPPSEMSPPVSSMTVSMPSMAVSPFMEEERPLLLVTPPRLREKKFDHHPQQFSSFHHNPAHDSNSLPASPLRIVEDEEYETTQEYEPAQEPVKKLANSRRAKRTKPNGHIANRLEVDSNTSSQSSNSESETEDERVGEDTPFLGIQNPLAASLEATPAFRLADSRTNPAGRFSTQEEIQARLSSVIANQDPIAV
Assay Overview: NRG1 binders on small-molecule microarrays, primary screen, psychiatric disease protein project, biochemical, small-molecule microarray, fluorescence 635/667 (AID 1075);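 also: score combines 667 nm spot fluorescence with signal to noise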
Experimental Parameters: NRG1 binding, 635 nm fluorescence, higher = more signal
Each record here notes measured composite z-score.
Write the number on its own, no unit after it.

Known composite z-score results, listed for orientation:
>>> number("C=C(CCCC)/C(=C/C[C@@H](OC(=O)c1ccncc1)c1ccccc1OCCO)c1cnc2ccccc2c1")
0.611
>>> number("O=C1N(Cc2ccccc2)Cc2ccccc2[C@@H]2OC(c3ccc(OCCCO)cc3)=N[C@]12CCS(=O)(=O)c1ccccc1")
1.48
>>> number("CCCCCCCCCCC(O)C1C=CC2C(=O)N(C)C(=O)C2N1NC(=O)OC(C)(C)C (configuration not stated)")
1.03
>>> number("NC(N)=NCCCn1cc(CNC(=O)[C@@H](N)Cc2ccccc2)nn1")
1.28
>>> number("COC(=O)[C@@]1(Cc2ccccc2)[C@H]2c3cc(C(=O)N(C)C)n(CCN4CNCC4=O)c3C[C@H]2CN1C(=O)c1ccccc1")
1.71
>>> number("CCCCC(O)C1C=CC2C(=O)N(c3ccccc3)C(=O)C2N1Nc1ccc(C(C)C)cc1 (configuration not stated)")
1.85

State the recorded composite z-score for this entry: C=C(C)c1cc2c(c(CCCCCC)n1)[Si](C(C)C)(C(C)C)OC2
-0.792

State the recorded composite z-score for this entry: O=C1C2C=CC(C(O)c3ccc(F)cc3)N(n3cnnc3)C2C(=O)N1Cc1ccccc1 (configuration not stated)
0.439

State the recorded composite z-score for this entry: COC(=O)[C@@]1(Cc2ccc(OC)cc2)[C@H]2c3cc(C(=O)N(C)C)n(Cc4ccc(Cl)c(C(F)(F)F)c4)c3C[C@H]2CN1C(=O)c1ccccc1
1.39

State the recorded composite z-score for this entry: CCCCC=C[C@@H](NC(=O)c1ccc(-c2ccccc2)cc1)c1ccccc1
1.55

State the recorded composite z-score for this entry: CCCCCCc1nc(C2CC2)cc2c1[Si](C(C)C)(C(C)C)O[C@H]2c1ccccc1
-0.37

State the recorded composite z-score for this entry: O=C(NCC(F)(F)F)[C@@H]1c2ccccc2C(=O)N(Cc2cc(F)cc(C(F)(F)F)c2)[C@H]1c1ccc(CO)cc1
-0.381

State the recorded composite z-score for this entry: O=C(NCc1ccccc1)[C@@H]1c2ccccc2C(=O)N(Cc2ccccc2C(F)(F)F)[C@H]1c1ccc(CO)cc1
0.48

State the recorded composite z-score for this entry: O=C1C2C=CC(C(O)c3ccccc3)N(Nc3ccccc3F)C2C(=O)N1c1ccccc1 (configuration not stated)
0.801
